Recorded IC50 values for a group of molecules are listed next.
Target: Beta-lactamase (Pseudomonas aeruginosa)
Sequence (Q79MP6 whole entry): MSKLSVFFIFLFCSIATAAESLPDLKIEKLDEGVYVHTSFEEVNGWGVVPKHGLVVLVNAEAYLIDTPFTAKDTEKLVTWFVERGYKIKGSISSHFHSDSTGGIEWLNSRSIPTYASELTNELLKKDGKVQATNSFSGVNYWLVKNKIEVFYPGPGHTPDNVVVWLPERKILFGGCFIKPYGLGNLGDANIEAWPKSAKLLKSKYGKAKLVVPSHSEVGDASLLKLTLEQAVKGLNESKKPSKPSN
Experiment: […] counterscreen for selective VIM-2 inhibitors: dose response biochemical high throughput screening assay to identify inhibitors of IMP-1 metallo-beta-lactamase.
Calls of active or inactive are those of the source. The rule behind the calls is not given here.
testReadout: IC50

{"molecule": "CCCC(=O)Nc1nnc(SCC(=O)NCc2cccs2)s1", "valueMeasured": "> 59.6 µM (inactive)"}
{"molecule": "O=C(CCN1C(=O)/C(=C/c2ccccc2F)SC1=S)NCCCn1ccnc1", "valueMeasured": "> 19.9 µM (inactive)"}
{"molecule": "Cc1cccc(C2c3[nH]c4ccccc4c3CCN2C(=O)c2cc(CC(C)C)nc(=O)[nH]2)n1 (centres undefined)", "valueMeasured": "> 59.6 µM (inactive)"}
{"molecule": "Cn1c(-c2sccc2OCc2ccc(Cl)cc2Cl)n[nH]c1=S", "valueMeasured": "> 59.6 µM (inactive)"}

# credit: ChEMBL document CHEMBL1201862
